ASSAY_PROCEDURE: Volume of distribution at steady state in Han Wistar rat at 0.99 micromol/kg, iv by LC-MS/MS analysis
Format: ADME, organism-based
DETAILS: in vivo, dose 0.99 µmol/kg, read-out: Vdss

{"columns": ["STRUCTURE_STRING", "UNITS_SYMBOL", "Vd"],
 "data": [
  ["CC(C)Oc1ccccc1C(=O)Nc1ccccc1C(=O)Nc1cccc(S(=O)(=O)C(F)(F)F)c1", "L/kg", 7.7]
]}

###

ASSAY_PROCEDURE: Metabolic stability in human liver microsomes assessed as unbound intrinsic clearance at 1 uM incubated for 30 mins in presence of NADPH by LC-MS/MS analysis
Format: ADME, Microsome
DETAILS: 0.5 h
ENDPOINT: CL free (µL/min/mg)

{"columns": ["STRUCTURE_STRING", "NUMERIC_VALUE"],
 "data": [
  ["COc1cc(F)c(-c2ccc(C(=O)O)cc2)cc1C(=O)N[C@@H]1[C@H]2CC[C@H](C2)[C@@H]1C(=O)Nc1cccc(S(=O)(=O)C(F)(F)F)c1", 314],
  ["COc1cc(F)c(-c2ccc(S(N)(=O)=O)cc2)cc1C(=O)N[C@@H]1[C@H]2CC[C@H](C2)[C@@H]1C(=O)Nc1cccc(S(=O)(=O)C(F)(F)F)c1", 92000]
]}

###

SYSTEM: Relaxin receptor 1 (Homo sapiens, UniProt Q9HBX9)
Sequence (Q9HBX9 whole entry): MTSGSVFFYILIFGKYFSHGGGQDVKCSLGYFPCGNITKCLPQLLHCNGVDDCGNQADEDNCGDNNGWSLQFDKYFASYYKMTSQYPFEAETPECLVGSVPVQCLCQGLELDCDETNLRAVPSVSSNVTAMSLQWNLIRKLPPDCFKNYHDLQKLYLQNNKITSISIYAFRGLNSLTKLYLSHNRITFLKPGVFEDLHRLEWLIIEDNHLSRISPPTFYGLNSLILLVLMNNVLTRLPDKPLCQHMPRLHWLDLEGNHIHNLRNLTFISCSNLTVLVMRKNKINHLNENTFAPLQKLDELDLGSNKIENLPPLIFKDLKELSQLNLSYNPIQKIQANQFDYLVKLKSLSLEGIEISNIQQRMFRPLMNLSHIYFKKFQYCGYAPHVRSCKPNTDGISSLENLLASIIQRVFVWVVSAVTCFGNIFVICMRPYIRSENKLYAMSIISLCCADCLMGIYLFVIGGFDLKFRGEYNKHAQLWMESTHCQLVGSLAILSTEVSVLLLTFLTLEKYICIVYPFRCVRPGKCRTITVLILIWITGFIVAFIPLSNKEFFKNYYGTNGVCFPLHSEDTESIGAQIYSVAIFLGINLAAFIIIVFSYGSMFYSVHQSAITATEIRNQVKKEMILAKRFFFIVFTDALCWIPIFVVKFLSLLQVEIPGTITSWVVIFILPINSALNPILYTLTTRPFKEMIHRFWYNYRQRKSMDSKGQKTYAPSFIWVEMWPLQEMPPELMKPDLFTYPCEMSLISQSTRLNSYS
ASSAY_PROCEDURE: Agonist activity at human RXFP1 expressed in T-Rex-CHO-K1 cells assessed as stimulation of cAMP production incubated for 45 mins by HTRF assay
Format: functional, cell-based
Consider the following compounds and their measured log10 of EC50 readings.
ENDPOINT: log10 of EC50 (log10 of the value in nM)

{"columns": ["COMPOUND", "SYSTEM", "log10 of EC50"],
 "data": [
  ["COc1cc(F)c(-c2ncc(C(=O)O)s2)cc1C(=O)N[C@H]1[C@@H](C(=O)Nc2cccc(S(=O)(=O)C(F)(F)F)c2)[C@@H]2C=C[C@H]1C2 (racemic)", "Relaxin receptor 1 (Homo sapiens, UniProt Q9HBX9)", 2.80],
  ["COc1cc(F)c(-c2ccc(C[C@H](C(=O)O)N(C)C)cc2)cc1C(=O)N[C@@H]1[C@H]2CC[C@H](C2)[C@@H]1C(=O)Nc1cccc(S(=O)(=O)C(F)(F)F)c1", "Relaxin receptor 1 (Homo sapiens, UniProt Q9HBX9)", 2.30],
  ["COc1cc(F)c(-c2ccc(C(=O)O)cc2)cc1C(=O)N[C@@H]1[C@H]2CC[C@H](C2)[C@@H]1C(=O)Nc1cccc(S(=O)(=O)C(F)(F)F)c1", "Relaxin receptor 1 (Homo sapiens, UniProt Q9HBX9)", 2.20],
  ["COc1ccc(-c2cccnc2)cc1C(=O)N[C@@H]1[C@H](C(=O)Nc2cccc(S(=O)(=O)C(F)(F)F)c2)[C@H]2C=C[C@@H]1C2 (racemic)", "Relaxin receptor 1 (Homo sapiens, UniProt Q9HBX9)", 3.24],
  ["COc1cc(F)c(-c2ccc(S(N)(=O)=O)cc2)cc1C(=O)N[C@@H]1[C@H]2CC[C@H](C2)[C@@H]1C(=O)Nc1cccc(S(=O)(=O)C(F)(F)F)c1", "Relaxin receptor 1 (Homo sapiens, UniProt Q9HBX9)", 2.40],
  ["COc1cc(F)c(O[C@H]2CC[C@@](C)(C(=O)O)CC2)cc1C(=O)N[C@@H]1[C@H]2CC[C@H](C2)[C@@H]1C(=O)Nc1ccc(F)c(S(F)(F)(F)(F)F)c1", "Relaxin receptor 1 (Homo sapiens, UniProt Q9HBX9)", -0.40]
]}

###

ASSAY_PROCEDURE: Metabolic stability in rat hepatocytes assessed as unbound fraction at 1 uM incubated for 4 hrs by equilibrium dialysis based LC-MS/MS analysis
Assay type: ADME, cell-based, Hepatocyte

{"columns": ["STRUCTURE_STRING", "fraction unbound at 4 h, 1 µM"],
 "data": [
  ["CC(C)Oc1ccccc1C(=O)Nc1ccccc1C(=O)Nc1cccc(S(=O)(=O)C(F)(F)F)c1", "4e-05"]
]}

###

ASSAY_PROCEDURE: Metabolic stability in cryopreserved human hepatocytes assessed as unbound intrinsic clearance measured per 10^6 cells at 1 uM measured after 120 mins by LC-MS/MS analysis
Format: ADME, cell-based, Hepatocyte
DETAILS: 2 h
Consider the following compounds and their measured CL free readings.
ENDPOINT: CL free (µL/min)

{"columns": ["COMPOUND", "UNITS_SYMBOL", "NUMERIC_VALUE"],
 "data": [
  ["COc1cc(F)c(O[C@H]2CC[C@H](C(=O)O)CC2)cc1C(=O)N[C@H]1[C@@H](C(=O)Nc2cccc(S(=O)(=O)C(F)(F)F)c2)[C@@H]2C=C[C@H]1C2", "µL/min", 84],
  ["COc1cc(F)c(O[C@H]2CC[C@@H](C(=O)O)CC2)cc1C(=O)N[C@H]1[C@@H](C(=O)Nc2ccc(F)c(C(F)(F)F)c2)[C@@H]2C=C[C@H]1C2", "µL/min", 175],
  ["COc1cc(F)c(-c2ccc(CC(=O)O)cc2)cc1C(=O)N[C@H]1[C@@H](C(=O)Nc2cccc(S(=O)(=O)C(F)(F)F)c2)[C@@H]2C=C[C@H]1C2 (racemic)", "µL/min", 295],
  ["COc1cc(F)c(-c2ccc(C(=O)O)cc2)cc1C(=O)N[C@H]1[C@@H](C(=O)Nc2cccc(S(=O)(=O)C(F)(F)F)c2)[C@@H]2C=C[C@H]1C2", "µL/min", 334],
  ["COc1cc(F)c(O[C@H]2CC[C@@](C)(C(=O)O)CC2)cc1C(=O)N[C@@H]1C[C@@H](OC)C[C@@H]1C(=O)Nc1cccc(S(=O)(=O)C(F)(F)F)c1", "µL/min", 26],
  ["COc1cc(F)c(OCCCCC(=O)O)cc1C(=O)N[C@H]1[C@@H](C(=O)Nc2cccc(S(=O)(=O)C(F)(F)F)c2)[C@@H]2C=C[C@H]1C2 (racemic)", "µL/min", 89],
  ["COc1cc(F)c(OCCCC(=O)O)cc1C(=O)N[C@H]1[C@@H](C(=O)Nc2cccc(S(=O)(=O)C(F)(F)F)c2)[C@@H]2C=C[C@H]1C2 (racemic)", "µL/min", 51],
  ["COc1cc(F)c(O[C@H]2CC[C@@H](C(=O)O)CC2)cc1C(=O)N[C@@H]1[C@H]2CC[C@H](C2)[C@@H]1C(=O)Nc1cccc(S(=O)(=O)C(F)(F)F)c1", "µL/min", 259],
  ["COc1cc(F)c(C(=O)N2CCC(C)(C(=O)O)CC2)cc1C(=O)N[C@H]1[C@@H](C(=O)Nc2cccc(S(=O)(=O)C(F)(F)F)c2)[C@@H]2C=C[C@H]1C2 (racemic)", "µL/min", 6.3],
  ["COc1cc(F)c(O[C@H]2CC[C@@H](C(=O)O)CC2)cc1C(=O)N[C@@H]1[C@H](C(=O)Nc2ccc(F)c(C(F)(F)F)c2)[C@H]2C=C[C@@H]1C2", "µL/min", 42],
  ["COc1cc(F)c(-c2ccc(C(=O)O)cc2)cc1C(=O)N[C@@H]1[C@H](C(=O)Nc2cccc(S(=O)(=O)C(F)(F)F)c2)[C@H]2C=C[C@@H]1C2", "µL/min", 484],
  ["COc1cc(F)c(O[C@H]2CC[C@@H](C(=O)O)CC2)cc1C(=O)N[C@@H]1[C@H]2CC[C@H](C2)[C@@H]1C(=O)Nc1ccccc1", "µL/min", 25],
  ["COc1cc(F)c(-c2cccc(C(=O)O)c2)cc1C(=O)N[C@H]1[C@@H](C(=O)Nc2cccc(S(=O)(=O)C(F)(F)F)c2)[C@@H]2C=C[C@H]1C2", "µL/min", 277],
  ["COc1cc(F)c(O[C@H]2CC[C@](C)(C(=O)O)CC2)cc1C(=O)N[C@@H]1[C@H]2CC[C@H](C2)[C@@H]1C(=O)Nc1cccc(S(=O)(=O)C(F)(F)F)c1", "µL/min", 222],
  ["COc1cc(F)c(O[C@H]2CC[C@@H](C(=O)O)CC2)cc1C(=O)N[C@H]1[C@H](C(=O)Nc2ccc(F)c(C(F)(F)F)c2)[C@@H]2C=C[C@H]1C2", "µL/min", 91],
  ["COc1cc(F)c(O[C@H]2CC[C@@H](C(=O)O)CC2)cc1C(=O)N[C@H]1[C@@H](C(=O)Nc2cccc(S(=O)(=O)C(F)(F)F)c2)[C@@H]2C=C[C@H]1C2", "µL/min", 100],
  ["COc1cc(F)c(O[C@H]2CC[C@@H](C(=O)O)CC2)cc1C(=O)N[C@H]1[C@@H](C(=O)Nc2ccc(F)c(S(=O)(=O)C(F)(F)F)c2)[C@@H]2C=C[C@H]1C2", "µL/min", 32],
  ["COc1cc(F)c(O[C@H]2CC[C@@](C)(C(=O)O)CC2)cc1C(=O)N[C@@H]1[C@H]2CC[C@H](C2)[C@@H]1C(=O)Nc1ccc(F)c(S(F)(F)(F)(F)F)c1", "µL/min", 2.1]
]}
